ASSAY PROTOCOL: NCI Yeast Anticancer Drug Screen. Data for the rad50 strain (AID 155);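 note: 0% = growth of vehicle-only cultures of the same strain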
RUN CONDITIONS: S. cerevisiae rad50 strain growth inhibition; at 5.0 µM (retest, dose inferred, filed as 0.5); active compounds read high
The panel holds about 79,000 compounds, 15% with a hit somewhere; the sample as a whole holds those more often. The source made the active and inactive calls. Cut-off read from the data, not from the text of the source: active = growth inhibition above about 70%; inactive = the rest.
MEASURED PROPERTY: growth inhibition

Study these solved cases before continuing.
1. OCC1OC(Sc2ncc[nH]2)C(O)C(O)C1O (stereo unspecified) :: -12% (inactive)
2. Nc1nc(Cl)cc(NCCCCCCCCCCNc2cc(Cl)nc(N)n2)n1 :: -4% (inactive)
3. CN(C)Cc1cc(CN(C)C)c(O)c(CN(C)C)c1 :: 8% (inactive)
4. O=C1/C(=C/c2ccc(Cl)cc2)Sc2scc(-c3cccc([N+](=O)[O-])c3)[n+]21 :: 26% (inactive)
5. O=[N+]([O-])c1cc([N+](=O)[O-])c2ccccc2c1NS(=O)(=O)/C=C/c1ccccc1 :: 5% (inactive)

Each compound below has a recorded value; state its growth inhibition.
1. CNC(=O)OCCN1c2ccccc2Sc2ccccc21
2. CC(=O)OC1OC(=O)C(C)(C(C)=O)C1C (stereo unspecified)
3. COc1cc2c(cc1O)C1CN(C2)Cc2cc(OC)c(O)cc21
4. Nc1nnc(/C=C/c2ccccc2)o1
5. CCOC(=O)Nc1c(C)cc(C)c(Br)c1C

["-22% (inactive)", "19% (inactive)", "-5% (inactive)", "2% (inactive)", "-3% (inactive)"]

Each compound below has a recorded value; state its growth inhibition.
1. Nc1cc2ccc(O)cc2c2ccccc12
2. c1ccc(-c2[nH]c3ccccc3c2-c2ccccn2)cc1

1. 0% (inactive)
2. 3% (inactive)

Each compound below has a recorded value; state its growth inhibition.
1. CCCCCCCCCCS(=O)CC(CO)NC(=O)/C=C/c1c(C)[nH]c(=O)[nH]c1=O (stereo unspecified)
2. ClCCCN(CCCCl)c1ccc(C=Nc2cccc(Cl)c2)cc1
3. COc1cccc(OCCC#N)c1
4. COc1ccc(Oc2ccccc2N)cc1

1. 35% (inactive)
2. 16% (inactive)
3. 2% (inactive)
4. 0% (inactive)

----------
ASSAY PROTOCOL: NCI Yeast Anticancer Drug Screen. Data for the mlh1 rad18 strain (AID 175)
RUN CONDITIONS: S. cerevisiae mlh1 rad18 strain growth inhibition; at 5.0 µM (retest, dose inferred, filed as 0.5); active compounds read high
The panel holds about 79,000 compounds, 15% with a hit somewhere; the sample as a whole holds those more often.
MEASURED PROPERTY: growth inhibition (%)
One number for each entry, in %.

1) Cc1n(CC(C)C)c2c([n+]1C)C(=O)c1ccccc1C2=O :: 68
2) CCc1nc(N)nc(N)c1-c1ccc(Cl)c(N=[N+]=[N-])c1 :: 65

Each compound below has a recorded value; state its growth inhibition.
1. Cc1nc2c(nc1C)C(=O)c1ccccc1C2=O
2. O=S(=O)(O)c1ccc(NN(c2c(O)ccc3ccccc23)S(=O)(=O)O)cc1
3. Nc1ccc2c3c(cccc13)C(=O)N(CCCBr)C2=O

1. 27
2. -12
3. 32

----------
ASSAY PROTOCOL: NCI Yeast Anticancer Drug Screen. Data for the mec2-1 strain (AID 157)
RUN CONDITIONS: S. cerevisiae mec2-1 strain, at 50.0 µM (retest, dose inferred, filed as 5.0)
This is part of a sample that, as a whole, favours compounds with a hit. Of some 79,000 tested, about 15% had one in any assay. The source made the active and inactive calls. Cut-off read from the data, not from the text of the source: active = growth inhibition above about 70%; inactive = the rest.
In this exercise, the only acceptable responses are active, inactive

In this assay, the call recorded for CCC(=O)OCOc1ccc(/C=C2\CCC(CN(C)C)C2=O)cc1 (centres undefined) was what?
inactive

----------
ASSAY PROTOCOL: NCI Yeast Anticancer Drug Screen. Data for the cln2 rad14 strain (AID 165);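 note: 0% = growth equal to vehicle treated cultures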
RUN CONDITIONS: S. cerevisiae cln2 rad14 strain, at 50.0 µM (retest, dose inferred, filed as 5.0), active compounds read high
The panel holds about 79,000 compounds, 15% with a hit somewhere; the sample as a whole holds those more often.
I'd be grateful if you could share measured growth inhibition for these entries.
One number for each entry, in %.

Study these solved cases before continuing.
1. OC1CN(Cc2ccccc2)C[C@@H]1O (stereo not given in full) :: 93
2. COc1ccc(/C=C/C(=O)CCN2CCN(CCC(=O)/C=C/c3ccc(OC)cc3)CC2)cc1 :: 99
3. COc1ccc(/C=C2\C=Nc3ccccc32)cc1 :: 25

Each compound below has a recorded value; state its growth inhibition.
1. c1ccc(C(c2ccccc2)n2ccnc2)cc1
2. c1ccc(Cc2cc3ccccc3c3ccccc23)cc1
3. O=Cc1cc([N+](=O)[O-])ccc1O.[Eu]
4. O=c1c(Cl)c(Cl)cnn1CCCl
5. Cc1c(OCc2cccc3ccccc23)ccc2c(=O)cc(SCCN3CCOCC3)oc12

1: -21; 2: 6; 3: 97; 4: 32; 5: 37

Each compound below has a recorded value; state its growth inhibition.
1. CC(=O)OCC(=O)[C@H]1CC[C@H]2[C@@H]3CC=C4C[C@@H](O)CC[C@]4(C)[C@H]3CC[C@]12C
2. O=C(COc1ccc(Cl)cc1Cl)Nc1cccc(C(F)(F)F)c1
3. OC(CF)(c1ccc(Cl)cc1)c1ccc(Cl)cc1
4. CC1(C)CC(=O)C2=C(C1)OC1=C(CC(C)(C)CC1=O)C2c1ccccc1Cl (stereo not given)
5. COC1/C=C/OC2(C)Oc3c(C)c(O)c4c(c3C2=O)C(=O)C=C(NC(=O)/C(C)=C\C=C\C(C)C2OC(C)(C)OC(C2C)C(C)C(OC(C)=O)C1C)C4=O (stereo not given)
6. O=S(=O)(O)c1ccc(NN(c2c(O)ccc3ccccc23)S(=O)(=O)O)cc1

1. 95
2. -13
3. 97
4. 33
5. 89
6. -84

Return reported growth inhibition; argument: CC1C[C@]2(C)C(=O)Nc3ccccc3[C@@H]2Nc2ccccc21 (stereo not given in full)
57

----------
ASSAY PROTOCOL: NCI Yeast Anticancer Drug Screen. Data for the sgs1 mgt1 strain (AID 161);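 note: 0% = growth of cultures given vehicle only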
RUN CONDITIONS: S. cerevisiae sgs1 mgt1 strain, at 5.0 µM (retest, dose inferred, filed as 0.5)
About 79,000 compounds went through this panel and 15% of them were active in at least one assay; those are over-represented in the sample as a whole. Activity calls are given as the source filed them. No stated cut-off is given here; in the data, active means growth inhibition above about 70%; inactive means the rest.
In this exercise, the only acceptable responses are Yes = active, No = inactive

Take a look at these entries with their results.
1. O=c1[nH]c(SCc2c(Cl)c(Cl)c(Cl)c(Cl)c2Cl)nc(=S)[nH]1 :: No
2. Nc1ccc2c3c(cccc13)C(=O)N(CCCBr)C2=O :: No

In this assay, the call recorded for c1ccc(C2=NC(c3ccccc3)=NS(S3=NC(c4ccccc4)=NC(c4ccccc4)=N3)=N2)cc1 (stereo unspecified) was what?
No

Cool, now `Nc1nc(N)c2c(Cl)c(CNc3ccc(Cl)c(Cl)c3)ccc2n1`
Yes

Cool, now `Fc1ccc(NC(=S)SCc2ccc3c(c2)OCO3)cc1`
No

Cool, now `NNc1ccc2ccccc2c1`
No

----------
ASSAY PROTOCOL: NCI Yeast Anticancer Drug Screen. Data for the mlh1 rad18 strain (AID 175)
RUN CONDITIONS: S. cerevisiae mlh1 rad18 strain growth inhibition; at 50.0 µM (retest, dose inferred, filed as 5.0); active compounds read high
This is part of a sample that, as a whole, favours compounds with a hit. Of some 79,000 tested, about 15% had one in any assay.
Values of growth inhibition greater than or equal to 90% map to class 1; values below map to class 0.

Take a look at these entries with their results.
1) CCN(CC)C(=S)Sc1nc2ccccc2s1 :: class 0
2) CCCCCCCCCCCCCCCCCCOCC(COP(=O)([O-])OCC[N+](C)(C)C)OC (stereo not given) :: class 0
3) COC(=O)C1=COC(C)C2C[n+]3ccc4c([nH]c5ccccc54)c3CC12 (stereo not given) :: class 0

Check this molecule for growth inhibition at or above 90%: CCC[CH2][Sn]1([CH2]CCC)[O]N=C(c2ccccc2)C(c2ccccc2)[O]1 (stereo not given)
class 0

Cool, now CCCCCCC(CCCCCCCCCCC(=O)OCC(CC)CC)OC(=O)CC (stereo not given)
class 0

Cool, now `COc1ccc(N/N=C(\CCN(C)C)c2ccccc2)cc1`
class 0

Cool, now `O=C1/C(=C\c2ccc([N+](=O)[O-])cc2)Sc2scc(-c3ccc(O)c(O)c3)[n+]21`
class 1

Cool, now `Clc1ccc(CN2CCCN(Cc3ccc(Cl)cc3)C2c2cc3ccccc3c3ccccc23)cc1`
class 1

Cool, now O=C1C=CC(=O)C(C2OC(=O)C(Br)=C2Br)=C1 (stereo not given)
class 0

Cool, now CC1CC=CCC1C(=O)O (stereo not given)
class 0

Cool, now `Clc1ccc2c(c1)[nH]c1c2nc2ccccn21`
class 1

----------
ASSAY PROTOCOL: NCI Yeast Anticancer Drug Screen. Data for the bub3 strain (AID 167)
RUN CONDITIONS: S. cerevisiae bub3 mutant strain, at 50.0 µM
Experimental: Growth inhibition of yeast strains with defined genetic alterations is measured as a screen for potential anti-cancer activity. Selected strains with alterations in DNA damage repair or cell cycle control were exposed to compounds and growth inhibition was measured relative to vehicle treated controls. The strain used in this assay is bub3
About 79,000 compounds went through this panel and 15% of them were active in at least one assay; those are over-represented in the sample as a whole. Active and inactive are the calls of the source. Cut-off read from the data, not from the text of the source: active = growth inhibition above about 70%; inactive = the rest.
In this exercise, the only acceptable responses are TRUE = active, FALSE = inactive

Take a look at these entries with their results.
1. CN(C)CCNC(=O)Cc1cc(O)c2c(c1O)C(=O)c1ccccc1C2=O :: FALSE
2. CCOC(=O)/C(=C/c1ccc(OC)c(OC)c1)C(=O)c1ccccc1 :: TRUE
3. CC1CP(c2ccccc2)(c2ccccc2)(c2ccccc2)OC1(C(=O)c1ccccc1)c1ccccc1 (stereo unspecified) :: TRUE

In this assay, the call recorded for CCC(C)c1ccc(O)c(C(C)CC)c1 (stereo unspecified) was what?
FALSE

Cool, now `O=S(c1cc(Br)ccc1O)c1cc(Br)ccc1O`
TRUE

Cool, now `Cc1ccc(S(=O)(=O)NC2CCCCCCC2)cc1`
TRUE

Cool, now `O=C1C(Cl)=C(N2CCN(C3=C(Cl)C(=O)c4ccccc4C3=O)CC2)C(=O)c2ccccc21`
TRUE

Cool, now C=C1C(=O)N2c3ccccc3C(C)(C)C2(S)C(=O)N1C (stereo unspecified)
TRUE

Cool, now `COc1cc(O)ccc1C(=S)SC`
FALSE

Cool, now CC1C[C@]2(C)C(=O)Nc3ccccc3[C@@H]2Nc2ccccc21 (stereo partly specified)
TRUE

Cool, now `Cc1cc(C)nc(NS(=O)(=O)c2ccc(Nc3c4ccccc4nc4c(C(=O)NCCCN(CCO)CCO)cccc34)cc2)n1`
TRUE

Cool, now `COc1cc(/C=C/C(=O)NCCCCN=[N+]=[N-])ccc1OCc1ccccc1`
FALSE

Cool, now `CCn1c2ccccc2c2ccc(N=Cc3ccc(N(C)C)cc3)cc21`
TRUE

Cool, now `CCOC(=O)C(Cc1ccccc1[N+](=O)[O-])C(=O)OCC`
FALSE

Cool, now `CC(=O)Nc1nc([N+](=O)[O-])c(C(C)C)s1`
FALSE

Cool, now CN1C(c2ccccc2)CC(=NOCc2ccccc2)CC1c1ccccc1 (stereo unspecified)
TRUE

Cool, now `CCCCN(C(=O)CCl)c1ccccc1`
FALSE

Cool, now `O=[N+]([O-])Cc1cnc2nncn2n1`
FALSE

Cool, now `COc1ccc2nc(C)cc(NCCCCCCCCCNc3cc(C)nc4ccc(OC)cc34)c2c1`
TRUE

Cool, now `CS(=O)(=O)OCCN(CCOS(C)(=O)=O)c1ccc(C=Nc2ccc(-c3csc(Cc4ccccc4)n3)cc2)c(Cl)c1`
TRUE

Cool, now `Clc1ccc(CN2CCCN(Cc3ccc(Cl)cc3)C2c2cc3ccccc3c3ccccc23)cc1`
TRUE
